Target: HIV-1 PR (Human immunodeficiency virus type 1 group M subtype B, UniProt P04585)
Assay: HIV-protease inhibitory activity assay (FRET peptide substrate)
Settings: Test Example 1
Task for the reader: assign each of the following compounds its reported IC50.
All answers are understood in nM, so give the number only.

Task item: Entry COc1ccc(S(=O)(=O)N(CC(C)C)CC(O)C(Cc2ccc(NCc3ccccc3-c3c(C(=O)O)c4ccccc4n3C)cc2)NC(=O)OC2COC3(C)OCCC23)cc1 (stereo not shown) : reported IC50 = ?
Reply: 1.3

Task item: Also check CC(C)CN(CC(O)C(Cc1ccccc1)NC(=O)OC1COC2(C)OCCC12)S(=O)(=O)c1ccc2nc(NCc3ccc(-c4sc5c(c4C(=O)O)CC(C)(C)CC5)cc3)sc2c1 (stereo not shown)
Reply: 0.99

Task item: Next up: COc1ccc(S(=O)(=O)N(CC(C)C)CC(O)C(Cc2ccc(NCc3nc(N4CCC4)sc3-c3sc4c(c3C(=O)O)CC(C)(C)CC4)cc2)NC(=O)OC2COC3(C)OCCC23)cc1 (stereo not shown)
Reply: 2.39

Task item: Can you handle COc1ccc(S(=O)(=O)N(CC(C)C)CC(O)C(Cc2ccc(OC3CN(c4cccc(-c5sc6c(c5C(=O)O)CC(C)(C)CC6)c4)C3)cc2)NC(=O)OC2COC3(C)OCCC23)cc1 (stereo not shown) next?
Reply: 4.54

Task item: And what about the compound COc1ccc(S(=O)(=O)N(CC(C)C)CC(O)C(Cc2ccc(OCc3csc(-c4sc5c(c4C(=O)O)CC(C)(C)CC5)n3)cc2)NC(=O)OC2COC3(C)OCCC23)cc1 (stereo not shown) ?
Reply: 1.32

Task item: What do we get for COc1ccc(S(=O)(=O)N(CC(C)C)CC(O)C(Cc2ccc(NCc3ncccc3-c3sc4c(c3C(=O)O)CC(C)(C)CC4)cc2)NC(=O)OC2COC3(C)OCCC23)cc1 (stereo not shown) ?
Reply: 1.99

Task item: // same read-out, input: COc1ccc(S(=O)(=O)N(CC(C)C)CC(O)C(Cc2ccc(N(C)Cc3cccc(-c4sc5c(c4C(=O)O)CC(C)(C)CC5)n3)cc2)NC(=O)OC2COC3(C)OCCC23)cc1 (stereo not shown)
Reply: 1.46

Task item: And COc1ccc(S(=O)(=O)N(CC(C)C)CC(O)C(Cc2ccc(NCC3COCCC3c3sc4c(c3C(=O)O)CC(C)(C)CC4)cc2)NC(=O)OC2COC3(C)OCCC23)cc1 (stereo not shown) ?
Reply: 1.94

Task item: Here is the next compound: COc1ccc(S(=O)(=O)N(CC(C)C)CC(O)C(Cc2ccc(N(C)Cc3nc(N4CCCCC4)sc3-c3sc4c(c3C(=O)O)CC(C)(C)CC4)cc2)NC(=O)OC2COC3(C)OCCC23)cc1 (stereo not shown)
Reply: 3.46

Task item: Repeat for the following compound: COc1ccc(S(=O)(=O)N(CC(C)C)CC(O)C(Cc2ccc(NCc3ccc(-c4sc5c(c4C(=O)O)CC(C)(C)CC5)cc3)cc2)NC(=O)OC2COC3(C)OCCC23)cc1 (stereo not shown)
Reply: 2.59

// provenance: patent US20170253607A1
